test_details: Acute toxicity in rats
condition_details: rat, in vivo, 3000 mg/kg oral, 8-day observation, read-out: deaths
quantity: mortality at 192 h (%)

>>> meas_value("CCCC(CCC)(CCC)NC(N)=O [Compound A, 1-(1,1-Di-n-propyl-n-butyl)-urea]")
10

====

test_details: traction test (balance, muscular tonus and strength)
condition_details: mouse, in vivo; oral, mice, 60 minutes after administration; read-out: ED50 (dose which causes 50% failures in the traction test)
quantity: TD50 at 1 h (mg/kg)

>>> meas_value("CCCC(CCC)(CCC)NC(N)=O")
600

====

test_details: Acute toxicity in mice
condition_details: mouse, in vivo, oral
quantity: LD50

>>> meas_value("CCCC(CCC)(CCC)NC(N)=O [Compound A, 1-(1,1-Di-n-propyl-n-butyl)-urea]")
"> 3000 mg/kg"
